B1: mRNA-splicing (parent)
chain: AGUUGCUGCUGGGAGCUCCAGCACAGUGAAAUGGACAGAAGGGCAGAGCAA

Variants of: B1
Experiment: exon inclusion enrichment index; higher = more inclusion; WT1 exon 5 minigene, HEK293
Would you mind sorting the entries by exon inclusion enrichment index according to these classes? interval 1 (below 0.1), interval 2 (0.1 to below 2), interval 3 (2 or more)

Solved cases (5 shown):
AGUUACCACCGGGAGCUCCAGCACAGUGAAAUGUUCAGAAGGGCAGAGCAA [G5A U7C G8A U10C G34U A35U]
interval 2
AGUUCACACAGGGAGCUCCAGCACAGUGAAAUGGACAGAAACGCAGAGCAA [G5C C6A U7C G8A U10A G41A G42C]
interval 2
AGUUGACGACGGGAGCUCCAGCACAGUGAAAUGGACAGAAGGGCGUAGCAA [C6A U7C C9A U10C A45G G46U]
interval 3
AGUUAGGGAUGGGAGCUCCAGCACAGUAUAAUGGACAGAAGGGCAGAGCAA [G5A C6G U7G C9A G28A A29U]
interval 1
AGUUCUUCUCGGGAGCUCCAGCACACGGAAAUGGACAGAAGGGCAGAGCAA [G5C C6U G8C C9U U10C G26C U27G]
interval 3

Exam item: # bin label for AGUUACCACCGGGAGCCACAGCACAGUGAAAUGGACAGAAGGGCAGAGCAA [G5A U7C G8A U10C U17C C18A]
Marked response: interval 2

Exam item: Query AGUUCACAGAGGGAGCUCCAGCACAGUGAAAUGGACAGAAGGGCAGAGCAA [G5C C6A U7C G8A C9G U10A] next
Marked response: interval 2

Exam item: Query AGUUCACACAGGGAGCUCCAGCACAGUGAAAUGGACAGAAGGGCAGAGCAA [G5C C6A U7C G8A U10A] next
Marked response: interval 2

Exam item: Query AGUUCACACAGCGAGCUCCAGCACAGUGAAAUGGACAGAAGGGCAGAGCAA [G5C C6A U7C G8A U10A G12C] next
Marked response: interval 2

Exam item: Query AGUUAGGGAUGGGAGCUCCAGCACAGUGAAAUGGACAGAAGGGCAGAACAA [G5A C6G U7G C9A G48A] next
Marked response: interval 1

Exam item: Query AGUUCUUCUCGGGAGCUCCAGCACAGUGACGUGGACAGAAGGGCAGAGCAA [G5C C6U G8C C9U U10C A30C A31G] next
Marked response: interval 3

Exam item: Query AGUUGCUGCUGGGUUCUCCAGCACAGUGAAAUGGACAGAAGGGCAGAGCAA [A14U G15U] next
Marked response: interval 1

Exam item: Query AGUUAGGAUUGGGAGCUCCAGCACAGUGAAAUGGACAGAAGGGCAGAGCAA [G5A C6G U7G G8A C9U] next
Marked response: interval 1

Exam item: Query AGUUCGCGCCGGGAGCUCCAGCAAUGUGAAAUGGACAGAAGGGCAGAGCAA [G5C C6G U7C U10C C24A A25U] next
Marked response: interval 3

Exam item: Query AGUUUCUUUUGGGAGCUCCAGCACAGUGACCUGGACAGAAGGGCAGAGCAA [G5U G8U C9U A30C A31C] next
Marked response: interval 2

Exam item: Query AGUUUCUUUUGGGGACUCCAGCACAGUGAAAUGGACAGAAGGGCAGAGCAA [G5U G8U C9U A14G G15A] next
Marked response: interval 1

Exam item: Query AGUUAUAUAUGGGAGCUCCAGCACAGUGAAAUGGACAGAACUGCAGAGCAA [G5A C6U U7A G8U C9A G41C G42U] next
Marked response: interval 2

Exam item: Query AGUUGAUCAAGGGAGCUCCAGCACAGUGAAAUGGACAGAAGGGCAGAGCAA [C6A G8C C9A U10A] next
Marked response: interval 2

Exam item: Query AGUUCUUCUCGGGAGCUCCAGACCAGUGAAAUGGACAGAAGGGCAGAGCAA [G5C C6U G8C C9U U10C C22A A23C] next
Marked response: interval 3

Exam item: Query AGUUCUUCUCGGGAGCUCCAGCAGCGUGAAAUGGACAGAAGGGCAGAGCAA [G5C C6U G8C C9U U10C C24G A25C] next
Marked response: interval 3

Exam item: Query AGUUCUUCUCGGGAGCUAGAGCACAGUGAAAUGGACAGAAGGGCAGAGCAA [G5C C6U G8C C9U U10C C18A C19G] next
Marked response: interval 2

Exam item: Query AGUUACCACCGGGAGCUCCAGCACAGUCGAAUGGACAGAAGGGCAGAGCAA [G5A U7C G8A U10C G28C A29G] next
Marked response: interval 3

Exam item: Query AGUUAUAUAUGGGAGCUCCAGCACAGUGAAAUGGACAGAAGGUAAGAGCAA [G5A C6U U7A G8U C9A G43U C44A] next
Marked response: interval 1

Exam item: Query AGUUGACGACGGGAGCUCCAGCACAGGAAAAUGGACAGAAGGGCAGAGCAA [C6A U7C C9A U10C U27G G28A] next
Marked response: interval 3

Exam item: Query AGUUUCUUUUGGGAGCUCCAGCACAGUGAAAUGGACAGAAGGGCAGAACAA [G5U G8U C9U G48A] next
Marked response: interval 2

Exam item: Query AGUUAGGGAUGGGAGCUGUAGCACAGUGAAAUGGACAGAAGGGCAGAGCAA [G5A C6G U7G C9A C18G C19U] next
Marked response: interval 1

Exam item: Query AAGUGACGACGGGAGCUCCAGCACAGUGAAAUGGACAGAAGGGCAGAGCAA [G2A U3G C6A U7C C9A U10C] next
Marked response: interval 3
